- assay system: outer ubiquinone binding site of complex III (IIIQO) (Rattus norvegicus, UniProt P00159+P20788)
- Construct: freshly isolated muscle mitochondria were assayed; from tissue; host or cells: rat skeletal muscle mitochondria (Wistar, Harlan Laboratories)
- experiment description: High-throughput screen: ROS production from outer ubiquinone binding site of complex III (IIIQO)
- Assay type: biochemical
- condition notes: Table 9; percent change in ROS from DMSO controls; read-out: IIIQo
Attribute: inhibition at 2.5 µM

| compound | inhibition at 2.5 µM [%] |
| --- | --- |
| COc1ccccc1/C=C/c1nc(O)nc(O)c1[N+](=O)[O-] | -6.6 |
| O=C(COc1ccc(Cl)cc1Cl)Nc1ccc(F)cc1F | 1.3 |
| O=C(O)C1CCCCC1C(=O)NC1CCCCCCC1 (stereo not drawn) | -0.1 |
| Cc1ccc(NS(=O)(=O)c2ccc(C3CCCCC3)cc2)cc1 | 3.4 |
| CC1=CC(C)C(C2OCC(CN3CCCCC3)O2)C(C)C1 (stereo not drawn) | 9 |
| CCN1CCN(C2CCC(C(C)(C)C)CC2)CC1 (stereo not drawn) | 6.2 |

----------
- assay system: succinate dehydrogenase/complex II (SDH) (Rattus norvegicus, UniProt P21913+Q641Z9+Q6PCT8+Q920L2)
- Construct: freshly isolated muscle mitochondria were assayed; from tissue; host or cells: rat skeletal muscle mitochondria (Wistar, Harlan Laboratories)
- Sequence (Q920L2 35-656): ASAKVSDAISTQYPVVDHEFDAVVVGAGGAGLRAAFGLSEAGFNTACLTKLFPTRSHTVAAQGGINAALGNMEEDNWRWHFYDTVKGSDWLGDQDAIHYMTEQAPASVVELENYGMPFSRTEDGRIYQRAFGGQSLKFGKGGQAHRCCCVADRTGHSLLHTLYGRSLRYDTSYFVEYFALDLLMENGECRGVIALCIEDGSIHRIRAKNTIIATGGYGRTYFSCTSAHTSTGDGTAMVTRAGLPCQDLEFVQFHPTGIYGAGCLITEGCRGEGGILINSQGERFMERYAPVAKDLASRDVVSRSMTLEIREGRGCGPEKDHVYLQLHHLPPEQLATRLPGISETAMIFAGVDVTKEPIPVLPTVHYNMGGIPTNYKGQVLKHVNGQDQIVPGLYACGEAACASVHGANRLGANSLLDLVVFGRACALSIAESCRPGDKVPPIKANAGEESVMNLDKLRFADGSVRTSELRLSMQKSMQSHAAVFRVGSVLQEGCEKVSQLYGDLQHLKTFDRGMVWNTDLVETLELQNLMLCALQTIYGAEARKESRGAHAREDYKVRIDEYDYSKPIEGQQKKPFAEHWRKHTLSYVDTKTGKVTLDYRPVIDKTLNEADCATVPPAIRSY
- Sequence (P21913 31-282): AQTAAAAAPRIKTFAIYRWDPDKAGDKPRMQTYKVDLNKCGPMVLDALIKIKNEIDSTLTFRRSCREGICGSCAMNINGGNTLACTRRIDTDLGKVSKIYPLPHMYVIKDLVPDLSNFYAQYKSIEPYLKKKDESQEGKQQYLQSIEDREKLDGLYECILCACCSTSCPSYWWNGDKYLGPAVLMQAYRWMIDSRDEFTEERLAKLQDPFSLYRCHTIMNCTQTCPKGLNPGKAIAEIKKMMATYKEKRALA
- Sequence (Q641Z9 30-169 limits assumed): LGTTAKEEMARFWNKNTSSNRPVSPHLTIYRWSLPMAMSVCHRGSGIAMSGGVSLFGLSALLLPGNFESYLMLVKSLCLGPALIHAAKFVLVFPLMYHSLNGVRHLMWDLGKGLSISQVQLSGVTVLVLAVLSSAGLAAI
- Sequence (Q6PCT8 57-159): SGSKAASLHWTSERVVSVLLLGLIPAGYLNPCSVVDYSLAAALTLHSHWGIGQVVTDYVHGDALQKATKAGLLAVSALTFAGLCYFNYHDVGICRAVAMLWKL
- experiment description: High-throughput screen: ROS production from succinate dehydrogenase/complex II (SDH)
- Format: biochemical
- condition notes: Table 8; percent change in ROS from DMSO controls
# binning rule on SDH: group A (below -3), group B (-3 to below -0.1), group C (-0.1 or more)

| compound | category |
| --- | --- |
| CC1CC(C)(C)N(C=O)c2ccccc21 (stereo not shown) | group A |
| CCN1CCN(C2CCC(C(C)(C)C)CC2)CC1 (stereo not shown) | group C |
| Cc1ccc(CCSc2ccc(F)cc2)cn1 | group C |
| O=C(Nc1ccccc1F)[C@@H]1C2C=CC(C2)[C@@H]1C(=O)O (stereo partly shown) | group B |
| COc1ccc(-c2ccccc2)cc1NCC1=CC[C@H]2C[C@@H]1C2(C)C | group C |
| c1cc2c3c(ccc(CSCCc4ccncc4)c3c1)CC2 | group B |
| Cc1cc(C)c(S(=O)(=O)N2CCCC2=O)c(C)c1 | group B |
| CC(C)(C)C1=NN(c2c(Cl)cc(Cl)cc2Cl)C(=O)C1 | group A |
| Cc1ccc(C)c(CN(CCCN(C)C)CCCN(C)C)c1 | group A |

----------
Parameter: IF. Scope: all listed entries.
- assay system: flavin binding site of complex I (IF) (Rattus norvegicus, UniProt Q5XIH3)
- Construct: freshly isolated muscle mitochondria were assayed; from tissue; host or cells: rat skeletal muscle mitochondria (Wistar, Harlan Laboratories)
- Sequence (Q5XIH3 21-464 limits assumed, one chain of several): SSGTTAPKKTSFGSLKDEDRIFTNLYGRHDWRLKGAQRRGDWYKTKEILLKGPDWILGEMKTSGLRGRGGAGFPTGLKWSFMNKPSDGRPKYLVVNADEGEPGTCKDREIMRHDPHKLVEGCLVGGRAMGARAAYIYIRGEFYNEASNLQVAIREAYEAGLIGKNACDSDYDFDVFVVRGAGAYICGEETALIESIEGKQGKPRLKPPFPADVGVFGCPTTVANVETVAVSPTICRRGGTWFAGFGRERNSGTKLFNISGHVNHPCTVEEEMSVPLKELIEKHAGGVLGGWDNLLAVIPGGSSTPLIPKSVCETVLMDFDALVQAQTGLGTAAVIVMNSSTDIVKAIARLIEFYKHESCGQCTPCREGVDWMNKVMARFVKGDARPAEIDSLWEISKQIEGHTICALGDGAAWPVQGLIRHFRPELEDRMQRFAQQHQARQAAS
- experiment description: High-throughput screen: ROS production from flavin binding site of complex I (IF)
- Format: biochemical
- condition notes: Table 8; percent change in ROS from DMSO controls
metric name: IF

| molecule | quantitative result |
| --- | --- |
| C=CCSc1nc(N)c(C#N)c(CC)c1C#N | 1.3 |
| CCCCN(Cc1ccccc1)Cc1cccc(Oc2ccc(Cl)cc2)c1 | 3.1 |
| Oc1nnc(Cc2ccncc2)c2ccccc12 | 2.6 |
| O=C(Nc1ccc(Br)cc1)[C@@H]1C2C=CC(C2)[C@@H]1C(=O)O (some centres unmarked) | −19.1 |
| CC1=CC(C)(C)N(Cc2ccc([N+](=O)[O-])cc2)c2ccccc21 | 0.6 |
| Cc1ccc(NS(=O)(=O)c2ccc(C3CCCCC3)cc2)cc1 | 3.6 |
| Cc1ccc(CCSc2ccc(F)cc2)cn1 | −0.7 |
| COc1ccc(NS(=O)(=O)c2cccc(C(=O)Nc3ccc(C)cc3)c2)cc1 | 3.3 |
| COc1cccc(/C=C/C(=O)c2c(O)cc(C)oc2=O)c1O | −26.0 |
| O=C(Nc1ccccc1F)[C@@H]1C2C=CC(C2)[C@@H]1C(=O)O (some centres unmarked) | −24.0 |
| CC(C)Cc1ccc(C(C)C(=O)Nc2ccccc2O)cc1 (centres unmarked) | 0.2 |
| c1cc2c3c(ccc(CSCCc4ccncc4)c3c1)CC2 | 0.6 |
| CN(C)CCN(Cc1ccccc1)Cc1ccccc1Br | −21.1 |
| O=[N+]([O-])c1ccc(Oc2ccc(S(=O)(=O)Nc3ccc4c(c3)OCCO4)cc2)cc1 | 0.5 |
| COc1cccc(CCNC2C3CC4CC(C3)CC2C4)c1 (centres unmarked) | −19.6 |
| C=C(C)CN(CC)Cc1cc([N+](=O)[O-])ccc1Cl | 0.5 |
| CC(=O)Nc1ccc(S(=O)(=O)Nc2cccc(C)c2)cc1 | 3.3 |
| O=C(Nc1ccccc1[N+](=O)[O-])c1cccc(S(=O)(=O)Nc2ccccc2)c1 | −0.7 |
| COc1ccc(C2C(C#N)=C(N)Oc3c2c(=O)oc2ccccc32)cc1O (centres unmarked) | 0.4 |
| CC(C)(C)C1=NN(c2c(Cl)cc(Cl)cc2Cl)C(=O)C1 | 0.5 |

----------
Listed below: inhibition values for each entry.
- assay system: glycerol-3-phosphate dehydrogenase (GPDH) (Rattus norvegicus, UniProt P35571)
- Construct: The activity of GPDH in intact mitochondria (0.3 mg/mL) was measured; from tissue; host or cells: rat skeletal muscle mitochondria (Wistar, Harlan Laboratories)
- Sequence (P35571 43-727): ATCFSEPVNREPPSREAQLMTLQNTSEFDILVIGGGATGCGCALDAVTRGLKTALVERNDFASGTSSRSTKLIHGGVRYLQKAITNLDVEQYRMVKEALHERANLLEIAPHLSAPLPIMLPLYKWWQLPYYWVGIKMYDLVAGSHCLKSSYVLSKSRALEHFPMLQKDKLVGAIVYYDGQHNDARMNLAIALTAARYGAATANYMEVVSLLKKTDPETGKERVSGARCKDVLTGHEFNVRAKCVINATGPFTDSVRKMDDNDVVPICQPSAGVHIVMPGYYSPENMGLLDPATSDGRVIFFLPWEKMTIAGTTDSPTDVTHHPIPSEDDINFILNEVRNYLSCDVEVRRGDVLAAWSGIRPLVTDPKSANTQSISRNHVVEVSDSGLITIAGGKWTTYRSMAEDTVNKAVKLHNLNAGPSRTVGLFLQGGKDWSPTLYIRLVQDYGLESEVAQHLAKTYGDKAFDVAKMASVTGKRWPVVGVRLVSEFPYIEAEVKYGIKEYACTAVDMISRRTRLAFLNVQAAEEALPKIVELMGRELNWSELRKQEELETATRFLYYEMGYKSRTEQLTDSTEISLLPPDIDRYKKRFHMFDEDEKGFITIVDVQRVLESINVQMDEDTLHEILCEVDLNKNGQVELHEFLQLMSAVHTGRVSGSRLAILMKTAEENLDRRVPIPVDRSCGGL
- experiment description: High-throughput screen: ROS production from glycerol-3-phosphate dehydrogenase (GPDH)
- Assay type: biochemical
- Design: dose or concentration left out as unconfirmed
- condition notes: Table 7; percent change in ROS from DMSO controls

| compound | output unit | inhibition |
| --- | --- | --- |
| Cc1ccc(S(=O)(=O)Nc2nnc(C)s2)cc1 | % | 0.4 |
| CCCC(=O)Nc1ccc(-c2nc3cc4ccccc4cc3[nH]2)cc1 | % | 32.1 |
| CC1CC(C)(C)N(C=O)c2ccccc21 (centres unmarked) | % | 0.6 |
| Cc1ccc(C(C)C)c(OCC(O)CN2CCN(Cc3ccccc3)CC2)c1.Cl.Cl (centres unmarked) | % | 1.8 |
| Cc1cc(C)c(S(=O)(=O)N2CCCC2=O)c(C)c1 | % | 4.2 |

----------
- assay system: flavin binding site of complex I (IF) (Rattus norvegicus, UniProt Q5XIH3)
- Construct: freshly isolated muscle mitochondria were assayed; from tissue; host or cells: rat skeletal muscle mitochondria (Wistar, Harlan Laboratories)
- experiment description: High-throughput screen: ROS production from flavin binding site of complex I (IF)
- Assay type: biochemical
- condition notes: Table 8; percent change in ROS from DMSO controls
metric name: IF

| compound | metric name | quantitative result |
| --- | --- | --- |
| COc1ccccc1/C=C/c1nc(O)nc(O)c1[N+](=O)[O-] | IF | −26.7 |
| CN(C)CCCN(CCCN(C)C)Cc1cccnc1 | IF | −3.0 |
| Cc1ccccc1NS(=O)(=O)c1ccc(C2CCCCC2)cc1 | IF | 0.4 |
| Cc1ccc(S(=O)(=O)Nc2nnc(C)s2)cc1 | IF | −19.6 |
| CN(C)CCN(Cc1ccccc1)Cc1ccc(C(F)(F)F)cc1 | IF | −18.1 |
| O=C(COc1ccc(Cl)cc1Cl)Nc1ccc(F)cc1F | IF | −19.8 |
| CCSC1=C(C#N)C2(CCCC2)C(C#N)C(=O)N1 (centres unmarked) | IF | −7.0 |
| Cl.OC12CCCCC1C(c1cccc(Cl)c1)NCC2 (centres unmarked) | IF | 5.5 |
| O=C(O)CCC(=O)Nc1ccc(-c2nc3ccccc3o2)cc1 | IF | −2.6 |
| CCCCN(Cc1ccccc1)Cc1cc(OC)c(OC)cc1[N+](=O)[O-] | IF | −17 |
| O=C(O)/C=C/C(=O)Nc1ccc(/C=C/c2ccccc2)cc1 | IF | 1.0 |
| Cc1cc(OCC(O)CN(Cc2ccccc2)C(C)(C)C)ccc1[N+](=O)[O-] (centres unmarked) | IF | −34 |
| CC1=CC(C)C(C2OCC(CN3CCCCC3)O2)C(C)C1 (centres unmarked) | IF | −39.0 |
| CC(C)(C)NS(=O)(=O)c1ccc2c(c1)C(=O)c1ccccc1C2=O | IF | 10.0 |
| CCN1CCN(C/C=C/c2ccc(N(C)C)cc2)CC1 | IF | −6.5 |
| COc1cc(CN(CCN(C)C)Cc2ccccc2)cc(OC)c1 | IF | −7.6 |
| CCN(CC)CCN(CC)Cc1ccc(Cl)cc1Cl | IF | −19.7 |
| COC(=O)c1ccc(CN(CCc2ccccc2)Cc2ccccc2)cc1 | IF | −4.4 |
| Cc1ccccc1NS(=O)(=O)c1ccc(-c2ccc(S(=O)(=O)Nc3ccccc3C)cc2)cc1 | IF | −1.7 |
| CCCCN(Cc1ccccc1)Cc1cc(Cl)cc(Cl)c1O | IF | −1.8 |

----------
- assay system: outer ubiquinone binding site of complex III (IIIQO) (Rattus norvegicus, UniProt P00159+P20788)
- Construct: freshly isolated muscle mitochondria were assayed; from tissue; host or cells: rat skeletal muscle mitochondria (Wistar, Harlan Laboratories)
- experiment description: High-throughput screen: ROS production from outer ubiquinone binding site of complex III (IIIQO)
- Format: biochemical
- condition notes: Table 9; percent change in ROS from DMSO controls; read-out: IIIQo
Below, each of the molecules is paired with its reported inhibition at 2.5 µM value.
metric name: inhibition at 2.5 µM (%)

| compound structure string | quantitative result |
| --- | --- |
| CCN(CC)CCN(CC)Cc1ccc(Cl)cc1Cl | 3.3 |
| Cc1ccccc1NS(=O)(=O)c1ccc(-c2ccc(S(=O)(=O)Nc3ccccc3C)cc2)cc1 | -0.2 |
| CCCCN(Cc1ccccc1)Cc1cccc(Oc2ccc(Cl)cc2)c1 | 23.1 |
| C=CCSc1nc(N)c(C#N)c(CC)c1C#N | -9.2 |
| Cc1cc(C)c(S(=O)(=O)N2CCCC2=O)c(C)c1 | 25.1 |

src = patent US20140128352A1
